Reported values of solubility kinetic for individual entries
- assay_setup: buffer; pH 7.4; 200.0 µM
Answer format: numeric, mg/mL implied, no suffix.

INSERT INTO assay_data (molecule, measured_value) VALUES
  ('O=[N+]([O-])c1ccc(S(=O)(=O)c2cccc(C(F)(F)F)c2)nc1', 0.0044),
  ('COc1ccc(C(=O)NCC(=O)OCC(=O)c2c(C)[nH]c3ccccc23)cc1OC', 0.0061);

# next molecule below
Tell me the measured solubility kinetic of Cc1ccc(C2N(C)C(=O)c3ccccc3N2C)cc1 (stereo unspecified) , please.
0.0315

* * *

Reported values of solubility kinetic for individual entries
- assay_setup: buffer; pH 7.4; 200.0 µM
Answer format: numeric, µg/mL implied, no suffix.

Use these answered entries as a reference point.
INSERT INTO assay_data (molecule, observed_property, measured_value) VALUES
  ('CC1CC(C)CN(c2ccc([N+](=O)[O-])nc2)C1 (stereo unspecified)', 'solubility kinetic', 28.6),
  ('COc1ccc(S(=O)(=O)NCCOc2ccccc2)cc1F', 'solubility kinetic', 2.4);

# next molecule below
Tell me the measured solubility kinetic of COc1ccc(C(=O)NCc2ccc3[nH]c(C)cc3c2)cc1OC , please.
23.5
